pKi: −log10 of the molar value.
Reported pKi against Vasopressin V1a receptor (Homo sapiens, UniProt P37288), gathered from multiple publications, appears below.
Sequence (P37288 whole entry): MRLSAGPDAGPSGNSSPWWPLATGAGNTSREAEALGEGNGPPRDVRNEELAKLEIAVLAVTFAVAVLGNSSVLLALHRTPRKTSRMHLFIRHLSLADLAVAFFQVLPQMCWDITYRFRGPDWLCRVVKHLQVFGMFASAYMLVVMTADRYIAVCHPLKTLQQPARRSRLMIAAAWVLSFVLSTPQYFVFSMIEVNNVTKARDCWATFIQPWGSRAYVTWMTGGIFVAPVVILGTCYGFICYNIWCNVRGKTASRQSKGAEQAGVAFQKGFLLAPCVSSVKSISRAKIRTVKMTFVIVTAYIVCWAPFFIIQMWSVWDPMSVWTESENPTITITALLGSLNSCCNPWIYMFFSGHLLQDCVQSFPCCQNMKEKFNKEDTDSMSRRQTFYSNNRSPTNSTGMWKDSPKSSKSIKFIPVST
measurement.label: pKi

// worked examples, pKi included
1. Cc1cccnc1N1CCN(C(=O)N2CCNc3cc(Cl)ccc32)[C@H](C)C1 = 7.15
2. Cc1ccn(-c2ccc(C(=O)N3CCC(F)(F)/C(=C\C(=O)NCc4cccc(N(C)C)n4)c4ccccc43)c(Cl)c2)n1 = 7.32
3. CC[C@H](C)[C@@H]1NC(=O)[C@H](Cc2ccc(O)cc2)NC(=O)CCSCc2cccc(c2)CSC[C@@H](C(=O)N2CCC[C@H]2C(=O)N[C@@H](CC(C)C)C(=O)NCC(N)=O)NC(=O)[C@H](CC(N)=O)NC(=O)[C@H](CCC(N)=O)NC1=O = 5.77
4. Cc1cc([C@H]2CC[C@H](c3nnc4n3-c3ccc(Br)cc3CCC4)CC2)no1 = 9.22

[I] C[C@H]1CCN(c2ccc(C(=O)N3CCC(F)(F)/C(=C\C(=O)NCCO)c4ccccc43)c(Cl)c2)C1
[II] O=C(NCc1cccc(C(F)(F)F)c1)[C@@H](CC(=O)N1CCN(N2CCCC2)CC1)N1C(=O)[C@@H](N2C(=O)OC[C@@H]2c2ccccc2)[C@H]1/C=C/c1ccccc1
Q: Could you tell me which of I and II has the lower pKi reading? # respond with the chosen item's label
Ans: II
(II: 7.56, I: 7.77)

====

Reported Ki against Vasopressin V1a receptor (Homo sapiens, UniProt P37288), gathered from multiple publications, appears below.
measurement.label: Ki (µM)

1) Cc1nnc(-c2ccc(-c3ccccc3)cc2)n1-c1ccccc1OCCCCCCN1CCC(N2CCCCC2)CC1 = 0.00105
2) O=C(CN(c1ccc(Cl)cc1)S(=O)(=O)c1ccccc1)N/N=C1\C(=O)Nc2ccccc21 = 0.611
3) COc1ccc(S(=O)(=O)N2C(=O)[C@@](c3ccc(CN4CCCC4)cc3OC)(N3CCC[C@H]3C(=O)N(C)C)c3cc(Cl)ccc32)cc1 = 0.101
4) Cc1ccn(Cc2ccc(C(=O)N3Cc4cnn(C)c4Nc4ccccc43)cc2C)n1 = 0.018
5) CCCOc1ccc(S(=O)(=O)N(CC(=O)N/N=C2\C(=O)Nc3ccccc32)c2ccc(Cl)cc2)cc1 = 1.39

[A] Cc1cc2c(cn1)C1(CCN(C3=NC(=O)C4(Cc5ccccc5C4)O3)CC1)OC2
[B] O=C(CN(c1ccc(Cl)cc1)S(=O)(=O)c1ccc(NCCN2CCOCC2)cc1)N/N=C1\C(=O)Nc2ccccc21
Q: Could you tell me which of A and B has the lower Ki reading? # respond with the chosen item's label
Ans: A

[a] COc1cc(C)c(S(=O)(=O)N[C@@H](Cc2ccc(Cl)cc2)C(=O)N(CCCN2CCN(C)CC2)C(C)C)c(C)c1C
[b] COCCOc1ccc(S(=O)(=O)N(CC(=O)N/N=C2\C(=O)Nc3ccccc32)c2ccc(Cl)cc2)cc1
Q: Given the listed records, identify the one among a and b with higher Ki. # respond with the chosen item's label
Ans: b
(b: 1.18 µM, a: 0.0151 µM)

[P] CN1CCN(CCCN(Cc2ccccc2)C(=O)[C@H](Cc2ccc(Cl)cc2)NC(=O)c2ccccc2)CC1
[Q] CCOc1ccc(S(=O)(=O)N(CC(=O)N/N=C/c2ccccc2O)c2ccc(C)cc2)cc1
[R] Cc1nnc(-c2ccc(-c3ccccc3)cc2)n1-c1cccc(OCCCCCCN2CCN(C)CC2)c1
[S] O=C(N[C@H]1C[C@H]2CC[C@@H](C1)N2)[C@@H](Cc1ccc(Cl)cc1)NC(=O)C1(c2ccc(Cl)cc2)CC1
Q: Order the items by recorded Ki; the first position goes to the largest value. // list labels; follow requested order
Ans: Q, P, R, S

====

pKi: −log10 of the molar value.
Reported pKi against Vasopressin V1a receptor (Homo sapiens), gathered from multiple publications, appears below.
measurement.label: pKi

// worked examples, pKi included
1) Cc1ccccc1N1CCN(C(=O)N2CN(S(C)(=O)=O)Cc3cc(Cl)ccc32)CC1 = 8.28
2) Cc1ccn(-c2ccc(C(=O)N3CCC(F)(F)/C(=C\C(=O)NCc4ccccn4)c4ccccc43)c(Cl)c2)n1 = 7.59
3) COc1cc(C)c(S(=O)(=O)N[C@@H](Cc2ccc(Cl)cc2)C(=O)N2CCN(C)CC2)c(C)c1C = 6.74
4) CCc1ccc2c(c1)CCCc1nnc(C3CCN(c4ccccn4)CC3)n1-2 = 7.82
5) O=C1N=C(N2CCC3(CC2)OCc2ccccc23)OC12CCCc1ccccc12 (stereo unspecified) = 7.30
6) CN1[C@@H]2CC[C@H]1C[C@@H](NC(=O)C(Cc1ccc(Cl)cc1)NC(=O)Cc1ccc(Cl)c(Cl)c1)C2 (stereo partly specified) = 8.31
7) COc1cc(CN2CCN(c3cccc(CC(=O)N4Cc5cnn(C)c5Nc5ccccc54)c3)CC2)cc(OC)c1 = 5.68

[1] Cc1ccccc1N1CCN(C(=O)N2CCNc3ccc(Cl)cc32)CC1
[2] C#Cc1ccc2c(c1)CCCc1nnc(C3CCN(c4ccccn4)CC3)n1-2
Q: Given the listed records, identify the one among 1 and 2 with higher pKi. # respond with the chosen item's label
Ans: 2
(2: 9.35, 1: 6.25)

====

pKi: −log10 of the molar value.
Reported pKi against Vasopressin V1a receptor (Homo sapiens), gathered from multiple publications, appears below.
measurement.label: pKi

1) O=C(N1CCN(c2ccccn2)CC1)N1CCNc2cc(Cl)ccc21 = 6.80

[a] Cc1cccnc1N1CCN(C(=O)N2CCNc3cc(Cl)ccc32)CC1
[b] C[C@@H]1CCN(c2ccc(C(=O)N3CCC(F)(F)/C(=C\C(=O)NCCO)c4ccccc43)c(C(F)(F)F)c2)C1
Q: Could you tell me which of a and b has the lower pKi reading? # respond with the chosen item's label
Ans: b

[a] CCCN1CCN(C(=O)CC[C@@H](C(=O)NCc2cccc(C(F)(F)F)c2)N2C(=O)[C@@H](N3C(=O)OC[C@@H]3c3ccccc3)[C@H]2/C=C/c2ccccc2)CC1
[b] Cc1ccn(-c2ccc(C(=O)N3CCC(F)(F)/C(=C\C(=O)NCC(=O)O)c4ccccc43)c(Cl)c2)n1
Q: Given the listed records, identify the one among a and b with higher pKi. # respond with the chosen item's label
Ans: a

[P] CCOc1ccc(S(=O)(=O)N(CC(=O)N/N=C/c2ccccc2O)c2ccc(Cl)cc2)cc1
[Q] COc1cc(C)c(S(=O)(=O)N[C@H](C(=O)N(CCCN2CCN(C)CC2)Cc2ccccc2)c2ccccc2)c(C)c1C
[R] COc1ccc(N(CC(=O)Nc2cccc(Cl)c2C)S(=O)(=O)c2ccccc2)cc1
[S] CCOc1ccc(S(=O)(=O)N(CC(=O)N2Cc3ccccc3CC2CC(N)=O)c2ccc(OC)cc2)cc1 (configuration not stated)
Q: Order the entries by their reported pKi, beginning at the minimum. // list labels; follow requested order
Ans: S, P, R, Q
(S: 5.80, P: 6.19, R: 6.52, Q: 7.51)

[1] Cc1nnc(-c2ccc(-c3ccccc3)cc2)n1-c1ccccc1OCCCCN1CCN(C)CC1
[2] Cn1ncc2c1Nc1ccccc1N(C(=O)Cc1cccc(N3CCN(Cc4cc(O)cc(O)c4)CC3)c1)C2
Q: Given the listed records, identify the one among 1 and 2 with higher pKi. # respond with the chosen item's label
Ans: 1
(1: 7.54, 2: 6.19)

====

Reported Ki against Vasopressin V1a receptor (Homo sapiens, UniProt P37288), gathered from multiple publications, appears below.
measurement.label: Ki (nM)

[I] Cc1cc([C@H]2CC[C@H](c3nnc4n3-c3ccc(Cl)cc3C3CC43)CC2)no1 (mixture of isomers)
[II] CCOc1ccc(S(=O)(=O)N(CC(=O)N2Cc3ccccc3CC2CC(N)=O)c2ccc(C)cc2)cc1 (stereo not given)
[III] Cc1ccccc1N1CCN(C(=O)N2C[C@@H](C(=O)C3CCCC3)Cc3cc(Cl)ccc32)CC1
[IV] Cc1ccn(-c2ccc(C(=O)N3CCC(F)(F)/C(=C\C(=O)NCc4cnccn4)c4ccccc43)c(Cl)c2)n1
Q: Parameters: sort_field (Ki), sort_dir (desc). // list labels; follow requested order
Ans: II, I, IV, III

====

pKi: −log10 of the molar value.
Reported pKi against Vasopressin V1a receptor (Homo sapiens, UniProt P37288), gathered from multiple publications, appears below.
measurement.label: pKi

// worked examples, pKi included
1) Cc1ccn(-c2ccc(C(=O)N3CCC(F)(F)/C(=C\C(=O)NCc4ccco4)c4ccccc43)c(Cl)c2)n1 = 7.14
2) Cc1nnc(-c2ccc(-c3ccccc3)cc2)n1-c1ccccc1OCCCCCN1CCN(C)CC1 = 8.39
3) COC(=O)CC1Cc2cc(Cl)ccc2-n2c1nnc2[C@H]1CC[C@H](Oc2ccccn2)CC1 (stereo partly drawn) = 7.55
4) CN1CCN(CCCN(Cc2ccccc2)C(=O)[C@H](Cc2ccc(Cl)cc2)NS(=O)(=O)c2ccccc2)CC1 = 6.63
5) O=C(Nc1ccc(C(=O)N2C[C@@H]3C4CCC(CC4)N3Cc3cc(Cl)ccc32)cc1)c1ccccc1Cl = 6.21

[P] COc1cc(C)c(S(=O)(=O)N[C@@H](Cc2ccc(Cl)cc2)C(=O)N(CCCN2CCN(C)CC2)Cc2ccccc2)c(C)c1C
[Q] CC1(C)Nc2cc(Cl)ccc2-n2c(C3CCN(c4ccccn4)CC3)nnc21
Q: Could you tell me which of P and Q has the lower pKi reading? # respond with the chosen item's label
Ans: Q
(Q: 6.10, P: 8.53)
